Reference source: BindingDB's records for doi:10.1021/jm0603116

biological target: Endoplasmin (Canis lupus familiaris, UniProt P41148); test: Inhibition of BODIPY-AG binding to dog Grp94
Sequence (P41148 whole entry): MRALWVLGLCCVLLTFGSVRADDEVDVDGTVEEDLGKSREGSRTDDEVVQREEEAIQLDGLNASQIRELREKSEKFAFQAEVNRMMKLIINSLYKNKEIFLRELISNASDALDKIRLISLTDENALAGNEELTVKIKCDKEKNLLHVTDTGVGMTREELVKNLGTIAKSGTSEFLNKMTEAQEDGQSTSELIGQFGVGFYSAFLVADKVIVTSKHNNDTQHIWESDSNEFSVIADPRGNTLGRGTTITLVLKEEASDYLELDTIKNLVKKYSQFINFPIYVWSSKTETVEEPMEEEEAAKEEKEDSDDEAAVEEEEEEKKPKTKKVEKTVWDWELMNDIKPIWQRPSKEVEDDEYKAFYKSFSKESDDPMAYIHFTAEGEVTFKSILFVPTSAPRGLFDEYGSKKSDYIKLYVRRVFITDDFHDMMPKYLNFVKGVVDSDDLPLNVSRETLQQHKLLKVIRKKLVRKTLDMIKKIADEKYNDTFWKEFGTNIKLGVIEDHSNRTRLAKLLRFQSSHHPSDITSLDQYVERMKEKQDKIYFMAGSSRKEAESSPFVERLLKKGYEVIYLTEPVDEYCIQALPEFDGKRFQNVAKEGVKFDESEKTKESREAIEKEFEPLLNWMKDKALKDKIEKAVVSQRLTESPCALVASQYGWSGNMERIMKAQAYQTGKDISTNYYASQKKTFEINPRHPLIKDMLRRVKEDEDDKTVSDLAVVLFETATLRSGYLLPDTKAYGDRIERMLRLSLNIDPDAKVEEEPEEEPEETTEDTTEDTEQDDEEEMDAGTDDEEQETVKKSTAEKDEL
Endpoint: EC50 (nM)
Value expressed in nM; do not type the unit.

(Q) Given the compound CO[C@H]1C=CC=C(C)C(=O)Nc2cc(O)c(N)c(c2O)C=C(C)C[C@H](OC)[C@H](O)[C@@H](C)/C=C(\C)[C@@H]1OC(N)=O , what is its reported EC50?
(A) 48
